System: human lung cancer cell NCI-H2228
assay-summary: Anti-proliferative effect in human lung cancer cell NCI-H2228 (CellTiter-Glo)
Assay type: cell-based
assay-setup: NCI-H2228, 72 h, cell proliferation, cultured for 3 days
pIC50: −log10 of the molar value. Where a name gives a salt, the structure may show the parent alone.

compound	pIC50
Cc1cc(Nc2ncc(Cl)c(Nc3ccccc3S(=O)(=O)C(C)C)n2)c(OC(C)C)cc1C1CCN(CC(=O)NCCOc2ccc3occ(C4CCC(=O)NC4=O)c3c2)CC1 (centres unmarked)	7.04
Cc1cc(Nc2ncc(Cl)c(Nc3ccccc3S(=O)(=O)C(C)C)n2)c(OC(C)C)cc1C1CCN(CC(=O)NCc2ccc3c(ccc4occ(C5CCC(=O)NC5=O)c43)c2)CC1 (centres unmarked) [WX002 hydrochloride]	6.80
